# Tested on: T-47D breast
# ASSAY_PROCEDURE: NCI tumour cell line growth inhibition, 48 h
Attribute: TGI

- MOLECULE: "COc1cc2c3c(n(CCCNCCO)c(=O)c2cc1OC)-c1cc2c(cc1C3=O)OCO2"
  TGI: "1.52 µM"
- MOLECULE: "Oc1cccc(-c2nc3ccccc3s2)c1"
  TGI: "56.8 µM"
- MOLECULE: "O=S1(=O)NNC(=NCc2ccc(F)cc2)c2ccccc21"
  TGI: "> 100 µM"
- MOLECULE: "O=C1c2cccnc2C(=O)c2c1c(C(=O)OCCCN1CCOCC1)c1ccccn21"
  TGI: "5.94 µM"
- MOLECULE: "CC(C)(C)OC(=O)NC(Cc1ccccc1)C(=O)N[C@H]1c2ccsc2/C(=N/O)[C@H]1O (some centres not stated)"
  TGI: "> 100 µM"

Query string: Param request: TGI | system T-47D breast | item CN(C)CCCn1c2ccccc2c2cnccc21
Result string: > 100 µM

Query string: Param request: TGI | system T-47D breast | item COc1cc(C2C3=C(COC3=O)N(CCO)c3cc4c(cc32)CCC4)cc(OC)c1O (configuration not stated)
Result string: > 32.5 µM

Query string: Param request: TGI | system T-47D breast | item O=C1/C(=C/c2ccccc2S)N=C(c2ccccc2)N1c1ccc2c(c1)Sc1cc(N3C(=O)/C(=C/c4ccccc4S)N=C3c3ccccc3)ccc1N2
Result string: 51.3 µM

Query string: Param request: TGI | system T-47D breast | item COc1ccccc1C1C(C#N)=C(N)OC2=C1C(=O)CCC2 (configuration not stated)
Result string: > 100 µM

Query string: Param request: TGI | system T-47D breast | item O=C1c2ccccc2-c2cc3ccccc3c(=O)n21
Result string: > 100 µM

Query string: Param request: TGI | system T-47D breast | item N#CC1c2ccccc2-c2ccccc2N1C(=O)c1ccccc1 (configuration not stated)
Result string: > 100 µM

Query string: Param request: TGI | system T-47D breast | item COc1cccc(-c2nn(-c3ccccc3)cc2-c2ccnc(NCCNC(=O)Nc3ccc(Cl)c(Cl)c3)c2)c1
Result string: 24.7 µM
